# targetOrTestSystem: human GR (Homo sapiens)
# Sequence (P04150 1-777): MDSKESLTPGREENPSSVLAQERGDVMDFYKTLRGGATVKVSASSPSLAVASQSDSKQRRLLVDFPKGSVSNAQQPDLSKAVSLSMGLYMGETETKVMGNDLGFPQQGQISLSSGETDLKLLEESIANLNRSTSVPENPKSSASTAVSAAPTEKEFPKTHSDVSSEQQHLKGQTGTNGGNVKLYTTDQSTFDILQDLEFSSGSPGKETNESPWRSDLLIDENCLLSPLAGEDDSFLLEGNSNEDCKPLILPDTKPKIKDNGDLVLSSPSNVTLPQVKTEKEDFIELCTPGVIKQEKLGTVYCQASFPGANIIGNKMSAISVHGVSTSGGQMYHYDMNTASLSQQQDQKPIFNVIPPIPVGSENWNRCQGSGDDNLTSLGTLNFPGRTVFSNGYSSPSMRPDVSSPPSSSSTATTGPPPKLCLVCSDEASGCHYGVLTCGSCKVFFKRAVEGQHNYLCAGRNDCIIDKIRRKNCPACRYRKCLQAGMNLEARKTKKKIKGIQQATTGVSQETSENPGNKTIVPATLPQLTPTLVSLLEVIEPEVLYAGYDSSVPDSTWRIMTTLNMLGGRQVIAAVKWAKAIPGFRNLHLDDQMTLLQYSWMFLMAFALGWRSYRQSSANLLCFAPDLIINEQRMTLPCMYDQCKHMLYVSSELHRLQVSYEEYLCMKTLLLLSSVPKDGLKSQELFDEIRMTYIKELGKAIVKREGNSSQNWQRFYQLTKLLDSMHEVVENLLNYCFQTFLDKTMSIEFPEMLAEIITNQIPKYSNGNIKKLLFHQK
# procedureText: Trans-Activation Modulation of Glucocorticoid Receptor (GRAMMER), MMTV-LUC reporter, agonist mode
# Type: cell-based
# Parameters: endogenous in cells
# experimentalSetup: A549, A549 cells; maximum activity; read-out: Transactivation A549 Cells GRAMMER Emax
Respond with Condition met for Emax values of 70% and above, Condition not met for values below.

# molecule, targetOrTestSystem, labelClass
measured = [
    ("C[C@]12Cc3cnn(-c4ccc(F)cc4)c3C=C1CC[C@@H]2CN(CC#N)S(=O)(=O)c1cc(OCC(F)(F)F)ccc1OCC(F)(F)F", "human GR (Homo sapiens)", "Condition not met"),
    ("COCCN(C[C@H]1CCC2=Cc3c(cnn3-c3ccc(F)cc3)C[C@@]21C)S(=O)(=O)CCN1C(=O)c2ccccc2C1=O", "human GR (Homo sapiens)", "Condition not met"),
    ("COC(=O)c1ccccc1S(=O)(=O)N(CC1CC1)C[C@H]1CCC2=Cc3c(cnn3-c3ccc(F)cc3)C[C@@]21C", "human GR (Homo sapiens)", "Condition not met"),
    ("C[C@]12Cc3cnn(-c4ccc(F)cc4)c3C=C1CC[C@@H]2CN(CC(O)C(F)(F)F)S(=O)(=O)Cc1ccccc1C(N)=O (stereo partly shown)", "human GR (Homo sapiens)", "Condition met"),
    ("C[C@]12Cc3cnn(-c4ccc(F)cc4)c3C=C1CC[C@@H]2CN(Cc1cccnn1)S(=O)(=O)CC(F)(F)F", "human GR (Homo sapiens)", "Condition not met"),
]

----------
# targetOrTestSystem: human GR (Homo sapiens)
# Sequence (P04150 1-777): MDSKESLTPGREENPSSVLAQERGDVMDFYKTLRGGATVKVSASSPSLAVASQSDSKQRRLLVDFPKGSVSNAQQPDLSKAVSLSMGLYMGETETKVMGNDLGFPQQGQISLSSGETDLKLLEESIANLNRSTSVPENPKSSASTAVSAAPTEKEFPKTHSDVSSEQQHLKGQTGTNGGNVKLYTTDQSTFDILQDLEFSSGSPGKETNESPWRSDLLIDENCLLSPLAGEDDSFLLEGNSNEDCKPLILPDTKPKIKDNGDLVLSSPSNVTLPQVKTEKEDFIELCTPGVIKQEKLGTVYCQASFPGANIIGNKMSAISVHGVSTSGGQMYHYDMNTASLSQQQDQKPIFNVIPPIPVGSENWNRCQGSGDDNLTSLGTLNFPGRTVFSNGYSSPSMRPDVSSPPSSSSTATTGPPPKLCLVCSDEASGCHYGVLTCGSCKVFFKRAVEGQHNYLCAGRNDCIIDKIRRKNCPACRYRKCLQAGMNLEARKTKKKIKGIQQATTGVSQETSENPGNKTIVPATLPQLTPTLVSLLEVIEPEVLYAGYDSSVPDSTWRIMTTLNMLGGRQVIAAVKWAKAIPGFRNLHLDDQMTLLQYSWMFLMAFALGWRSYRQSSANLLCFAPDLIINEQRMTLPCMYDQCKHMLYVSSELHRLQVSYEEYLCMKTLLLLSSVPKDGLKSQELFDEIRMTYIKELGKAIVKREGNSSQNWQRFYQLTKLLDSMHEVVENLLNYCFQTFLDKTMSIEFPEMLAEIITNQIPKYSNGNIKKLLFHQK
# procedureText: Trans-Activation Modulation of Glucocorticoid Receptor (GRAMMER), MMTV-LUC reporter, agonist mode
# Type: cell-based
# Parameters: endogenous in cells
# experimentalSetup: A549 cells; inflection point; read-out: Transactivation A549 Cells GRAMMER IP

# molecule, EC50 / nM
data = [
    ("COC(=O)c1ccccc1CS(=O)(=O)N(CCc1ccccc1F)C[C@H]1CCC2=Cc3c(cnn3-c3ccc(F)cc3)C[C@@]21C", 236),
    ("C[C@]12Cc3cnn(-c4ccc(F)cc4)c3C=C1CC[C@@H]2CN(CCO)S(=O)(=O)c1cc(F)cc(F)c1", 475),
    ("COC(=O)c1ccccc1S(=O)(=O)N(CCc1ccccc1F)C[C@H]1CCC2=Cc3c(cnn3-c3ccc(F)cc3)C[C@@]21C", 152),
    ("C[C@]12Cc3cnn(-c4ccc(F)cc4)c3C=C1CC[C@@H]2CN(CC#N)S(=O)(=O)c1ccccc1C(F)(F)F", 1080),
]
